# credit: the MegaScale stability set (Tsuboyama et al. 2023)

Overview of recorded folding stability dG for various variants
B1: EEHEE_rd3_1049 (parent)
chain: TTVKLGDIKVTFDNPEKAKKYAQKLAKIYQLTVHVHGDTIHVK

variants of: B1; assay: folding stability dG (cDNA display proteolysis); higher = more stable; conditions: PBS, room temperature
Note to self: number, then unit, no commentary.

# folding stability dG lookup, item "T32P"
0.612 kcal/mol
